target: HDAC3 (Homo sapiens, UniProt O15379); assay: HDAC biochemical activity measurement (fluorescent substrate deacetylation);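 note: fluorogenic acetyl-lysine substrate (20 µM) deacetylated by HDAC3, then developer added for 15 min at room temperature, release of fluorophore read at excitation 360 nm, emission 460 nm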
Sequence (O15379 whole entry, species assumed): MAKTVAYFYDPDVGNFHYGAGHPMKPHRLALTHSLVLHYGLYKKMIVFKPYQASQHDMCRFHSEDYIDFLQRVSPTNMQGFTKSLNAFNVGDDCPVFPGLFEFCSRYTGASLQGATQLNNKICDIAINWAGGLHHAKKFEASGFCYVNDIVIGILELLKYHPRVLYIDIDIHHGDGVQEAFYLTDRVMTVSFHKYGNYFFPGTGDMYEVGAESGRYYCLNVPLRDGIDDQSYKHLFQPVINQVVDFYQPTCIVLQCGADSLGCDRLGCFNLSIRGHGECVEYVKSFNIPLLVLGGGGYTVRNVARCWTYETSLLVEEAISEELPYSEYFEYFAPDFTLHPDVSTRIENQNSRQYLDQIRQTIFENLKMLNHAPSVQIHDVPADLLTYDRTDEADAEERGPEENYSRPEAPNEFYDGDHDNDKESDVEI
Sequence (Q9Y618 395-489 partner limits assumed, species assumed): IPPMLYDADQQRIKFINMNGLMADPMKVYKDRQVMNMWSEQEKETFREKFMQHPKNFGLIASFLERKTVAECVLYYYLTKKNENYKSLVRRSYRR
Reported Property: IC50 (nM)
Use nM as the unit, but write only the number.

*Q* Recorded IC50 of `C/C=C1\NC(=O)c2nc(ccc2SCCC)CNC(=O)C[C@@H](/C=C/CCSC(=O)CCCCCCC)OC(=O)[C@H](CC)NC1=O` , please.
*A* 26

*Q* Note, next up: `C/C=C1\NC(=O)c2nc(ccc2F)CNC(=O)C[C@@H](/C=C/CCSC(=O)CCCCCCC)OC(=O)[C@H](CC)NC1=O`
*A* 34

*Q* Quick one: `C/C=C1\NC(=O)c2cccc(n2)CNC(=O)C[C@@H](/C=C/CCSC(=O)CCCCCCC)OC(=O)[C@H](CSCC)NC1=O`
*A* 32

*Q* Then what about the molecule `C/C=C1\NC(=O)c2cccc(n2)CNC(=O)C[C@@H](/C=C/CCSC=O)OC(=O)[C@H](C(C)C)NC1=O` ?
*A* 51

*Q* Check `C/C=C1\NC(=O)c2cc(F)cc(n2)CNC(=O)C[C@@H](/C=C/CCSC(C)=O)OC(=O)[C@H](Cc2cccc3ccccc23)NC1=O` too.
*A* 27

*Q* Similarly, `C/C=C1\NC(=O)c2cccc(n2)CNC(=O)C[C@@H](/C=C/CCSC(=O)CCCCCCC)OC(=O)[C@H](CCSC)NC1=O` ?
*A* 53

*Q* Note, next up: `C/C=C1\NC(=O)c2nc(ccc2F)CNC(=O)C[C@@H](/C=C/CCSC(C)=O)OC(=O)[C@H](C(C)C)NC1=O`
*A* 47

*Q* Quick one: `C/C=C1\NC(=O)c2cc(SC)cc(n2)CNC(=O)C[C@@H](/C=C/CCSC(C)=O)OC(=O)[C@H](CCCCN)NC1=O`
*A* 39

*Q* Thanks! And `C=C1NC(=O)c2cc(SC)cc(n2)CNC(=O)C[C@@H](/C=C/CCSC(C)=O)OC(=O)[C@H](C(C)C)NC1=O` ?
*A* 38

*Q* Queued: `C/C=C1\NC(=O)c2cc(F)cc(n2)CNC(=O)C[C@@H](/C=C/CCSC(C)=O)OC(=O)[C@H](C(C)C)NC1=O`
*A* 28

*Q* `C/C=C1\NC(=O)c2nc(ccc2SC)CNC(=O)C[C@@H](/C=C/CCS)OC(=O)[C@H](C)NC1=O` , same question.
*A* 21

*Q* Query `C/C=C1\NC(=O)c2nc(ccc2F)CNC(=O)C[C@@H](/C=C/CCSC(=O)CC)OC(=O)[C@H](C(C)C)NC1=O` next
*A* 41

*Q* Next molecule up: `C/C=C1\NC(=O)c2nc(ccc2SC)CNC(=O)C[C@@H](/C=C/CCSC(=O)CCCCCCC)OC(=O)[C@H](C(C)C)NC1=O`
*A* 51
